experiment: Determination of toxicity (lethal action on the mouse after intraperitoneal application); type: in vivo; details: in vivo, ip; mouse i.p.; Table VII
Assay readout: LD50 at 336 h (mg/kg)
Give bare numbers, in mg/kg.

Enquiry: Answer with the recorded LD50 at 336 h for the molecule listed here: COc1ccc(Cl)cc1C(=O)N(CCCC(=O)O)c1ccccc1-c1ccccc1 [Serial No. 33]
Return: 170

----------
Please respond with reported selectivity ratio for every item in the list.
Test: Influence on pancreatic secretion of the narcotized rat
Assay type: in vivo, rat (male Sprague-Dawley)
Details: in vivo; LD50 mouse i.p. / ED50 rat i.d.; Table VII; read-out: TQ [LD50/ED50], pancreatic secretion
Procedure: Male Sprague-Dawley rats (body weight from 250 to 300 g) are narcotized with 1.2 g/kg urethane i.m. Then the abdominal cavity is opened medially, the bile duct is ligatured shortly above the place where it leads into the duodenum and also near to the hepatic duct, and both sections are catheterized towards the liver. […] The body temperature of the animals is maintained at 36° to 38° C. by means of electric blankets and radiation; the temperature is monitored rectally. […]
Give bare numbers.

These solved cases illustrate the format of a correct answer.
{"columns": ["Cpd smiles", "selectivity ratio"],
 "data": [
  ["O=C(O)CCCN(C(=O)c1ccc(Cl)cc1)c1ccc(-c2ccccc2)cc1", 120],
  ["O=C(O)CCCN(C(=O)c1cccc(C(F)(F)F)c1)c1ccccc1-c1ccccc1", 110],
  ["COc1ccc(Cl)cc1C(=O)N(CCCC(=O)O)c1ccccc1-c1ccccc1", 85],
  ["O=C(O)CCCN(C(=O)c1ccc(Cl)cc1)c1ccccc1-c1ccccc1", 180],
  ["COc1ccc(Cl)cc1C(=O)N(CCCC(=O)O)c1ccc(OC)c(-c2ccccc2)c1", 38],
  ["O=C(O)CCCN(C(=O)c1ccc(F)cc1)c1ccccc1-c1ccccc1", 84]
]}

Query compound follows.
Enquiry: Answer with the recorded selectivity ratio for the compound listed here: `COc1ccc(N(CCCC(=O)O)C(=O)c2ccc(Cl)cc2)cc1-c1ccccc1`
Return: 80

----------
test: Antihepatotoxic effect: duration of hexobarbital sleep of the rat after liver damage by CCl4; settings: rat, in vivo, TQ LD50/ED25, antihepatotoxic effect, LD50 mouse i.p. / ED25 rat p.o.; Table XI
Please respond with reported selectivity ratio for every item in the list.

These solved cases illustrate the format of a correct answer.
{"columns": ["Molecule", "selectivity ratio"],
 "data": [
  ["CC(=O)N(CCCC(=O)O)c1cccc2ccccc12 [Serial No. 39, 4-[N-(α-naphthyl)acetamido]butyric acid]", "> 75"],
  ["COc1cc(C(=O)N(CCCC(=O)O)c2cccc3ccccc23)cc(OC)c1OC", 21.2],
  ["O=C(O)CCCN(C(=O)c1ccc(Cl)cc1)c1cccc2ccccc12", "~28"]
]}

Okay, here is my list. What is selectivity ratio for each of these?
1. CC(=O)N(CCCC(=O)O)C1CCCc2ccccc21 (centres unmarked)
2. CC(CCC(=O)O)N(C(=O)c1ccc(Cl)cc1)c1cccc2ccccc12 (centres unmarked)

Return:
1. > 20
2. ~12

----------
assay: Determination of toxicity (lethal action on the mouse after intraperitoneal application); assay type: in vivo; conditions: in vivo, ip; mouse i.p.; Table XI
Assay readout: LD50 at 336 h (mg/kg)
One number for each entry, in mg/kg.

Enquiry: Answer with the recorded LD50 at 336 h for the compound listed here: `COc1cc(C(=O)N(CCCC(=O)O)c2cccc3ccccc23)cc(OC)c1OC`
Return: 360

FYI, the data here is from patent US4243678A.
